biological target: hCA II (Homo sapiens)
measured_property: log10 of Ki (log10 of the value in nM)
Please interpret these as log10 of Ki where Ki is in nM.

The reported value for CC12CC(c3ccccc3O1)C(C(N)=O)C(=O)N2CCc1ccc(S(N)(=O)=O)cc1 (stereo not shown) in terms of log10 of Ki is 0.75

====

Quick record of Ki values for UniProt Q16790.
I only need the number, in µM, no unit after it.

CC12CC(c3ccccc3O1)C(C(N)=O)C(=O)N2CCc1ccc(S(N)(=O)=O)cc1 (centres unmarked): 0.421
COC(=O)c1cn(CC(=O)Nc2ccc(S(N)(=O)=O)cc2)cc2c(=O)[nH]nc1-2: 0.907
NS(=O)(=O)CCNC=C1C(=O)Oc2ccccc2C1=O: 0.0978
COC(=O)c1cn(CCc2ccc(S(N)(=O)=O)cc2)cc2c(=O)[nH]nc1-2: 0.849

Alright, here's another molecule for you.
Considering COC(=O)c1cn(-c2cccc(S(N)(=O)=O)c2)cc2c(=O)[nH]nc1-2 , its Ki with UniProt Q16790 was recorded as 0.59
